- TARGET_DESC: G-protein coupled receptor 55 (Homo sapiens) (UniProt Q9Y2T6)
- Sequence (Q9Y2T6 whole entry, looked up): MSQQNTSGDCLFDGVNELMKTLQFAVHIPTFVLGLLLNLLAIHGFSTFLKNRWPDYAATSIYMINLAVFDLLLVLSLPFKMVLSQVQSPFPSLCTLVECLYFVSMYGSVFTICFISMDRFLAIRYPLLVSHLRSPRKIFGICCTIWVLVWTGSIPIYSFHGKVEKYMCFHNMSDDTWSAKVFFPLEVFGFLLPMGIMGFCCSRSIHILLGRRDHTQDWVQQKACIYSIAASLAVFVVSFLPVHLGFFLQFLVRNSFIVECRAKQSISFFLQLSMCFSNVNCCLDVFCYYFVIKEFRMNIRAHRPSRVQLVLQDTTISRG
- ASSAY_TEXT: GPR55 antagonists blocking LPI-driven arrestin recruitment, primary screen, imaging, U2OS, beta-arrestin-GFP, LPI agonist (AID 2013);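 also: U2OS cells stably carrying GPR55 and arrestin-GFP stimulated by 5 µM LPI near EC80; imaged beta-arrestin-GFP aggregate spots per cell after agonist stimulation; plate controls were LPI-stimulated DMSO wells for no effect and DMSO wells without LPI for full effect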
- RECORDED_CONDITIONS: U2OS GPR55 beta-arrestin-GFP translocation imaging, LPI antagonism; at 10 µM; hits give high values
The campaign covered roughly 290,000 compounds. About 370 (0.13%) were called active. The entries come from a sample that favours actives as a whole. Measured potencies and affinities stand elsewhere.
RESULT_TYPE: inhibition (%)

# COMPOUND, ENDPOINT_VALUE
measured = [
    ("NS(=O)(=O)c1ccc(NC(=O)C(Sc2ccccc2)c2ccccc2)cc1 (stereo not drawn)", 12.2),
    ("CC(=O)NS(=O)(=O)c1ccc(NC(=O)C(Sc2ccccc2)c2ccccc2)cc1 (stereo not drawn)", 8),
    ("COc1cccc(NC(=O)CN(C)CC(=O)Nc2cccc(C(F)(F)F)c2)c1", -8.3),
    ("CC(=O)Oc1ccc2c(c1)Oc1cc(OC(C)=O)ccc1C21OC(=O)c2ccccc21", 9.9),
    ("CCCNC(=O)c1nnsc1Sc1ccc(Cl)cc1", -10.7),
    ("CCCCNC(=O)C(Sc1ccccc1)c1ccccc1 (stereo not drawn)", -9.3),
    ("CCN1C(=O)C(O)(C2COC(C)(C)CC2=O)c2ccccc21 (stereo not drawn)", 7.4),
    ("CNC(=O)c1ncoc1-c1ccc(Cl)cc1", 12.3),
]

---

Listing of recorded inhibition by entry.
- TARGET_DESC: G-protein coupled receptor 55 (Homo sapiens)
- ASSAY_TEXT: GPR55 antagonists blocking LPI-driven arrestin recruitment, primary screen, imaging, U2OS, beta-arrestin-GFP, LPI agonist (AID 2013);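 also: U2OS cells stably carrying GPR55 and arrestin-GFP stimulated by 5 µM LPI near EC80; imaged beta-arrestin-GFP aggregate spots per cell after agonist stimulation; plate controls were LPI-stimulated DMSO wells for no effect and DMSO wells without LPI for full effect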
- RECORDED_CONDITIONS: U2OS GPR55 beta-arrestin-GFP translocation imaging, LPI antagonism; at 10 µM; hits give high values
The whole screen tested about 290,000 compounds, of which about 370 (0.13%) were called active. What follows is part of a selection rich in actives, with near analogues and random picks from the rest. Potency and affinity values are given separately.

# COMPOUND, TARGET_DESC, inhibition (%)
rows = [
    ("NC(=O)CSc1n[nH]c(-c2ccco2)n1", "G-protein coupled receptor 55 (Homo sapiens)", 8.2),
    ("N#CCC(=O)Nc1ccc(C(=O)OCC(=O)Nc2ccccc2-c2ccccc2)cc1", "G-protein coupled receptor 55 (Homo sapiens)", 6.7),
    ("O=C(NC(NC(=S)Nc1ccccc1C(=O)O)C(Cl)(Cl)Cl)c1ccco1 (centres undefined)", "G-protein coupled receptor 55 (Homo sapiens)", 15.9),
    ("CC(C)(C)OC(=O)N1CCC(c2c(C(=O)NC3CC3)cnn2-c2ccc(Cl)cc2)CC1", "G-protein coupled receptor 55 (Homo sapiens)", 4.1),
    ("CCN1CC2=C(OC(N)=C(C#N)C2c2ccccc2)/C(=C\\c2ccccc2)C1 (centres undefined)", "G-protein coupled receptor 55 (Homo sapiens)", 3.6),
    ("COc1ccc(-c2ccc(-c3nnc(Cc4ccc(OC)c(OC)c4)o3)cc2)cc1", "G-protein coupled receptor 55 (Homo sapiens)", -4.2),
    ("OC(COc1cccc2ccccc12)CN1CCCC1 (centres undefined)", "G-protein coupled receptor 55 (Homo sapiens)", -4.7),
    ("CC(C)(C)c1ccc(C(=O)Nc2ccc(C(=O)N3CCOCC3)cc2)cc1", "G-protein coupled receptor 55 (Homo sapiens)", 13),
    ("COc1ccc(-c2cc(N)n(S(=O)(=O)c3ccc(F)cc3)n2)cc1OC", "G-protein coupled receptor 55 (Homo sapiens)", 1.3),
    ("CN(C(=O)C1CCC1C(=O)O)c1nc(-c2ccc(Cl)s2)cs1 (centres undefined)", "G-protein coupled receptor 55 (Homo sapiens)", 11.8),
    ("Cc1cccc(C)c1NC(=O)C(Cl)C(=O)c1ccccc1 (centres undefined)", "G-protein coupled receptor 55 (Homo sapiens)", 2.5),
    ("CC(Sc1nnc(-c2ccc(OC(F)F)cc2)o1)C(=O)NCC1CCCO1 (centres undefined)", "G-protein coupled receptor 55 (Homo sapiens)", 17.5),
    ("Cn1c(=O)n(CCc2ccccc2)c(=O)c2c1nc1n2CCCN1c1ccccc1", "G-protein coupled receptor 55 (Homo sapiens)", 8.1),
    ("CCOc1ccc(NC(=O)c2c[nH]n3c(=O)cc(C4CCN(C(=O)OC(C)(C)C)CC4)nc23)cc1", "G-protein coupled receptor 55 (Homo sapiens)", 16.4),
    ("O=C(c1cccnc1)N1CCN(C(=O)c2cccc(Cl)c2)CC1", "G-protein coupled receptor 55 (Homo sapiens)", -12.2),
    ("CSc1ccc(CN(C)C(=O)c2cc(=O)c3ccccc3o2)cc1", "G-protein coupled receptor 55 (Homo sapiens)", -0.8),
    ("COC(=O)C1=C(C)N(Cc2ccccc2)C(=O)/C1=C\\c1ccco1", "G-protein coupled receptor 55 (Homo sapiens)", 2.2),
    ("O=C(N/N=C/c1ccc(O)cc1)c1cc(C23CC4CC(CC(C4)C2)C3)[nH]n1", "G-protein coupled receptor 55 (Homo sapiens)", -6.9),
    ("O=C(Nc1ccccc1Cl)c1ccccc1", "G-protein coupled receptor 55 (Homo sapiens)", 3.2),
    ("O=C(NC1CCN(Cc2ccc(F)cc2)CC1)c1ccccc1", "G-protein coupled receptor 55 (Homo sapiens)", 6.4),
    ("O=C(Nc1ccc(F)cc1)NC1(C(=O)NCc2ccco2)CCCCC1", "G-protein coupled receptor 55 (Homo sapiens)", 5.6),
    ("CCN1CCN(C(c2cccc(OC)c2OC)c2nnnn2Cc2ccco2)CC1 (centres undefined)", "G-protein coupled receptor 55 (Homo sapiens)", -6.5),
    ("CC(=O)C(Cl)C(=O)Nc1ccccc1 (centres undefined)", "G-protein coupled receptor 55 (Homo sapiens)", -8.1),
    ("CCOC(=O)c1c(NC(=O)C2=C(C)NC(=S)NC2c2ccc(F)cc2F)sc(C)c1C (centres undefined)", "G-protein coupled receptor 55 (Homo sapiens)", 10),
    ("COc1ccc(-n2ncc(C(=O)NC3CC3)c2C2CCN(C(=O)OC(C)(C)C)CC2)cc1", "G-protein coupled receptor 55 (Homo sapiens)", 12.4),
    ("CCOC(=O)c1sc2nc(N3CCOCC3)c3c(c2c1N)CC(C)(C)N(C)C3", "G-protein coupled receptor 55 (Homo sapiens)", -4.1),
    ("CN(C)c1ccc(/C=N/n2c(COc3ccccc3)n[nH]c2=S)cc1", "G-protein coupled receptor 55 (Homo sapiens)", 1.6),
    ("O=C(COc1ccc(Cl)cc1Cl)Nc1ccc(S(=O)(=O)NC2=NCCCCC2)cc1", "G-protein coupled receptor 55 (Homo sapiens)", 3.6),
    ("Cc1ccc(CNC(=O)c2ccc(CS(=O)(=O)c3ccccc3C)o2)cc1", "G-protein coupled receptor 55 (Homo sapiens)", 7.3),
    ("CCOC(=O)c1c(NC(=O)c2ccnn2C)sc(C)c1C", "G-protein coupled receptor 55 (Homo sapiens)", 1.1),
    ("COc1cc(NC(=O)c2cnn3c(C(F)F)cc(C4CC4)nc23)c(OC)cc1Cl", "G-protein coupled receptor 55 (Homo sapiens)", 14.7),
    ("COc1ccccc1C(c1nnnn1Cc1ccco1)N1CCN(c2cccc(C)c2C)CC1 (centres undefined)", "G-protein coupled receptor 55 (Homo sapiens)", 15.4),
    ("CCc1ccc(CCC(=O)Nc2nccs2)o1", "G-protein coupled receptor 55 (Homo sapiens)", 2.3),
    ("COc1cc(NC(=O)C2CCN(S(=O)(=O)c3cccnc3)CC2)cc(OC)c1OC", "G-protein coupled receptor 55 (Homo sapiens)", 8.8),
]

---

- TARGET_DESC: G-protein coupled receptor 55 (Homo sapiens) (UniProt Q9Y2T6)
- ASSAY_TEXT: GPR55 antagonists blocking LPI-driven arrestin recruitment, primary screen, imaging, U2OS, beta-arrestin-GFP, LPI agonist (AID 2013);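 also: U2OS cells stably carrying GPR55 and arrestin-GFP stimulated by 5 µM LPI near EC80; imaged beta-arrestin-GFP aggregate spots per cell after agonist stimulation; plate controls were LPI-stimulated DMSO wells for no effect and DMSO wells without LPI for full effect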
- RECORDED_CONDITIONS: U2OS GPR55 beta-arrestin-GFP translocation imaging, LPI antagonism; at 10 µM; hits give high values
Hit rate of the full screen: of about 290,000 compounds, about 370 (0.13%) were called active. The entries come from a sample that favours actives as a whole. Entries with a potency or affinity are not part of this list.
Measured inhibition values are reported for all entries that follow.
RESULT_TYPE: inhibition (%)

# COMPOUND, TARGET_DESC, ENDPOINT_VALUE
data = [
    ("CCCN1Cc2cccc(C(=O)N3CCN(c4ccc(F)cc4)CC3)c2C1=O", "G-protein coupled receptor 55 (Homo sapiens) (UniProt Q9Y2T6)", 2.2),
    ("COc1ccc(-c2nn(-c3ccccc3)cc2/C=C2/SC(=S)N(Cc3ccco3)C2=O)c(C)c1", "G-protein coupled receptor 55 (Homo sapiens) (UniProt Q9Y2T6)", 13.6),
    ("CC1NC(=S)N(C2CCCCC2)C1=O (stereo unspecified)", "G-protein coupled receptor 55 (Homo sapiens) (UniProt Q9Y2T6)", 2.5),
    ("COc1ccc(-c2nn(-c3ccccc3)cc2/C=C2/SC(=S)N(CCC(=O)O)C2=O)cc1", "G-protein coupled receptor 55 (Homo sapiens) (UniProt Q9Y2T6)", 2.4),
    ("Cc1cc(C)c2nc(-c3ccccn3)cc(C(=O)Nc3cc(C)on3)c2c1", "G-protein coupled receptor 55 (Homo sapiens) (UniProt Q9Y2T6)", 1.5),
    ("O=C(COC(=O)c1cc(S(=O)(=O)N2CCc3ccccc3C2)ccc1Cl)NCc1ccco1", "G-protein coupled receptor 55 (Homo sapiens) (UniProt Q9Y2T6)", 7.3),
    ("O=C(NC1CCCCC1)C(c1ccco1)N(C(=O)C(F)(F)F)C1CC1 (stereo unspecified)", "G-protein coupled receptor 55 (Homo sapiens) (UniProt Q9Y2T6)", -2.5),
    ("Cc1ccccc1C(=O)Nc1ccc(S(=O)(=O)Nc2onc(C)c2C)cc1", "G-protein coupled receptor 55 (Homo sapiens) (UniProt Q9Y2T6)", 6.6),
    ("C=CCNC(=O)C1CCC(=O)N1S(=O)(=O)c1ccc(C)cc1 (stereo unspecified)", "G-protein coupled receptor 55 (Homo sapiens) (UniProt Q9Y2T6)", 9.3),
    ("CCOc1ccccc1NC(=O)Nc1ccc(Br)cn1", "G-protein coupled receptor 55 (Homo sapiens) (UniProt Q9Y2T6)", 13.3),
    ("COCCN1C=C(C(=O)OC)C(c2cc3c(cc2Br)OCO3)C(C(=O)OC)=C1", "G-protein coupled receptor 55 (Homo sapiens) (UniProt Q9Y2T6)", 1),
    ("COc1ccc(-c2csc3ncnc(Oc4cccc5ccc(C)nc45)c23)cc1", "G-protein coupled receptor 55 (Homo sapiens) (UniProt Q9Y2T6)", 7.8),
    ("Cc1cc(C)c(C(=O)Nc2ccc(S(=O)(=O)Nc3onc(C)c3C)cc2)c(C)c1", "G-protein coupled receptor 55 (Homo sapiens) (UniProt Q9Y2T6)", 4.6),
    ("c1ccc(-c2nc(N3CCN(c4ccccc4)CC3)nc(-n3ccnc3)n2)cc1", "G-protein coupled receptor 55 (Homo sapiens) (UniProt Q9Y2T6)", 24.6),
    ("CCOC(=O)Cc1c(Cl)c2ccccc2[nH]c1=O", "G-protein coupled receptor 55 (Homo sapiens) (UniProt Q9Y2T6)", -1.4),
    ("O=C(NCCc1ccc(Cl)cc1)c1cc2ccccn2n1", "G-protein coupled receptor 55 (Homo sapiens) (UniProt Q9Y2T6)", 6.6),
]
